The reported measurements were obtained from patent US20080008707A1.

Test system: D93 binding to human denatured-collagen IV
Assay: Competition ELISA: synthetic peptides blocking D93 binding to heat denatured collagen IV
Conditions: peptide inhibitor concentration 10 μM; average of two studies; vs 1% BSA/PBS alone
Square brackets hold non-standard residues; d marks the D form. Ends that are not written are not given here. Hyp = O=C(O)[C@@H]1C[C@@H](O)CN1
measurement.label: % INHIBITION OF BINDING OF D93 TO HUMAN DENATURED-COLLAGEN IV (%)

# substance, tested.on, result.value
data = [
    ("LPGTPG (L[Hyp]GT[Hyp]G) [SEQ ID NO: 27]", "D93 binding to human denatured-collagen IV", 2),
    ("LPGPPGPPGP (LPGP[Hyp]GP[Hyp]GP) [SEQ ID NO: 20]", "D93 binding to human denatured-collagen IV", 41.5),
    ("PGPPGPPGPY (PGP[Hyp]GP[Hyp]GPY) [SEQ ID NO: 28]", "D93 binding to human denatured-collagen IV", 83),
    ("PGPPGPPGP (PGP[Hyp]GP[Hyp]GP) [SEQ ID NO: 29]", "D93 binding to human denatured-collagen IV", 40.5),
    ("LPGSPG (L[Hyp]GS[Hyp]G) [SEQ ID NO: 26]", "D93 binding to human denatured-collagen IV", 3.5),
]

P = LPGFPGC [SEQ ID NO: 37, reference compound]
Q = PGAKGLPGP ([Hyp]GAKGLPGP) [SEQ ID NO: 17]
R = CTWPRHHTTDALL [SEQ ID NO: 39, reference compound]
S = F-Hyp-G-P-Hyp-G-P-D-G-L-P-G-S-M-G-P-Hyp-G (F[Hyp]GP[Hyp]GPDGLPGSMGP[Hyp]G) [SEQ ID NO: 36]
T = GPPGPPGP (GPXGPXGP; MOD_RES (3) Hydroxyproline; MOD_RES (6) Hydroxyproline) [SEQ ID NO: 31]
(Q) Rank the items in ascending order with respect to % INHIBITION OF BINDING OF D93 TO HUMAN DENATURED-COLLAGEN IV. Please list the labels according to the requested order.
(A) R, P, Q, T, S
